- Target: T1, Dimeric human CD48-mFc (human)
- T1 chain: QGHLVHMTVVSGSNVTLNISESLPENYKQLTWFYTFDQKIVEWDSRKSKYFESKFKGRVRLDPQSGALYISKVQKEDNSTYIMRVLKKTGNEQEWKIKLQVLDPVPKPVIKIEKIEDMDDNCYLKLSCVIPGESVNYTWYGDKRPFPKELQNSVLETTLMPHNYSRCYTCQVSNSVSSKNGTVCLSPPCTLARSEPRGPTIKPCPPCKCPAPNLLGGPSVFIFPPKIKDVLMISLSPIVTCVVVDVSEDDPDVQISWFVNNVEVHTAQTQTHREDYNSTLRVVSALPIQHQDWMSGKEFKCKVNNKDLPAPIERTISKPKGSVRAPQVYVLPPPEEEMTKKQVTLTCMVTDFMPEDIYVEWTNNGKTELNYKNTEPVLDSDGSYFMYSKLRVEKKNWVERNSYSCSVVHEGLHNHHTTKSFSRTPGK
- Experiment: SPR (Biacore T100), 25 C, antibody captured by anti-Fc, dimeric CD48-mFc in solution
Quantity kind: koff (s⁻¹)
Write the answer as a number in s⁻¹, unit excluded.

Use these answered entries as a reference point.
Ask | Which koff is reported for this binder? H4H1775P (antibody, human IgG4, V domains shown, Human IgG4 Fc (prefix H4H)) VH: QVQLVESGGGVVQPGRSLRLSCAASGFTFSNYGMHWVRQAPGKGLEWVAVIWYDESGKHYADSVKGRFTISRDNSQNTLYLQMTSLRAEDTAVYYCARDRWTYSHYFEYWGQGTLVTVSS VL: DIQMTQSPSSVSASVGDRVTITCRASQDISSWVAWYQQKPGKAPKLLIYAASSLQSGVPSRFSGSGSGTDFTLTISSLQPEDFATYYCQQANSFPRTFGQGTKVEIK
Reply | 1.31e-05

Ask | // lookup koff for H4H1770P (antibody, human IgG4, V domains shown, Human IgG4 Fc (prefix H4H)) VH: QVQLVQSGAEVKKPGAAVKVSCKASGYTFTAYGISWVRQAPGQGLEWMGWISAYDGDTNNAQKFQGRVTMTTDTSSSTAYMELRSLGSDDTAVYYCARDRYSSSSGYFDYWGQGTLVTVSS VL: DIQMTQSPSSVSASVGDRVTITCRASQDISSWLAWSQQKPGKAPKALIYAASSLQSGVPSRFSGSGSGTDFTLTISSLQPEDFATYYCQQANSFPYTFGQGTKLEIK
Reply | 5.54e-06

---
Ask | I'd like to know its koff. The binder in question is H2M1713N (antibody, mouse IgG2, V domains shown, Human variable domains, mouse IgG2 Fc (prefix H2M)) VH: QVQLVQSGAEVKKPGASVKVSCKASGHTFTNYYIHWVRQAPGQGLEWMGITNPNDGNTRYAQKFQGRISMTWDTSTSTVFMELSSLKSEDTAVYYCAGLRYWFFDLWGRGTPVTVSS VL: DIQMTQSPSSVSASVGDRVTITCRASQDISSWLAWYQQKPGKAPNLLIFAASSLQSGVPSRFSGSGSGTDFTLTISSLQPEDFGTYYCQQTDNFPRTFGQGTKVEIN
Reply | 1.11e-05

Ask | Give its koff value. Item: H2M1709N (antibody, mouse IgG2, V domains shown, Human variable domains, mouse IgG2 Fc (prefix H2M)) VH: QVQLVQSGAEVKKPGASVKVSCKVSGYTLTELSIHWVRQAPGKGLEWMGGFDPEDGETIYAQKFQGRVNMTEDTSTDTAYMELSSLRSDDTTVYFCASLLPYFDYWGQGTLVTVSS VL: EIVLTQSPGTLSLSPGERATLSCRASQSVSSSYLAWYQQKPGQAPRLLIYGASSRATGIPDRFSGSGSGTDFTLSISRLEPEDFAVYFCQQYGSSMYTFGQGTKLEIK
Reply | 0.000288

Ask | Can you look up the measured koff of H2M1811N (antibody, mouse IgG2, V domains shown, Human variable domains, mouse IgG2 Fc (prefix H2M)) VH: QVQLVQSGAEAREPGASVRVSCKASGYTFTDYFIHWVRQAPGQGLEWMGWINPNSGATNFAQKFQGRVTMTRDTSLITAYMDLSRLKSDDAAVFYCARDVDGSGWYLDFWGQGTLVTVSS VL: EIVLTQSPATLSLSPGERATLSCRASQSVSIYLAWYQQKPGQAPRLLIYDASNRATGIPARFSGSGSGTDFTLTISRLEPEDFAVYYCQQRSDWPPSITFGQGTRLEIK for me?
Reply | 0.00023
